B1: TPR t1 (parent)
chain: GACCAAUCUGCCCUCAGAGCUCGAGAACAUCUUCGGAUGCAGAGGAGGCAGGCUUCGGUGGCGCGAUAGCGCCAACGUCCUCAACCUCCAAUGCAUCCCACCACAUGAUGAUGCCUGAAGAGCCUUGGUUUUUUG

Variants of: B1
Experiment: polymerase ribozyme fitness, log enrichment relative to wild type (log ratio); higher = more active; in vitro selection for triplet polymerase activity
test.readout: polymerase ribozyme fitness (log ratio)
Write the value as a bare number.

These solved cases illustrate the format of a correct answer.
> print(dat)
   mutation.descriptor  test.value
1            U59A G77U       -2.02
2  C56G C72G U87G C98U       -1.99

Proceed to the following item.
Which measured polymerase ribozyme fitness (log ratio) value corresponds to U106A A111C ?
-1.96
